# TESTED_ON: AAD-12 (Delftia acidovorans)
# Construct: made in house; host or cells: E. coli BL21(DE3)
# Sequence (P83309 2-292, added parts left off): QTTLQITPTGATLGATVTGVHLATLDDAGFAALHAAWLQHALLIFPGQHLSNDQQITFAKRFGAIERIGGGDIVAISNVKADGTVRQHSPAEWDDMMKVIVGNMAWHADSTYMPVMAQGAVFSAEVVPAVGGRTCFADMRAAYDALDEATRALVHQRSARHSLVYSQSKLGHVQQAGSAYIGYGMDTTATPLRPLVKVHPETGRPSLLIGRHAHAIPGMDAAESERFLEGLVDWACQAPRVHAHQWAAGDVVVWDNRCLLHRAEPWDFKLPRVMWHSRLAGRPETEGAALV
# ASSAY_NOTES: Degradation activities of AAD-12 on phenoxy acetic acid herbicides by spectrophotometry (A510)
# Type: biochemical, Comamonas acidovorans
# PARTICULARS: AAD-12 enzyme with substrate, chromogenic detection at 510 nm
# Protocol: As reported in literature (Fukomori and Flausinger, Purification and characterization of 2,4-dichlorophenoxyacetate/alpha-ketoglutarate dioxygenase Journal of Biological Chemistry (1993) 268(32): 24311-24317), the constructed expression vector pET15b-AAD12 was transformed into E. coli BL21(DE3) and induced by IPTG for expression. After cells were collected and lysed, Ni-NTA column was used for purification and the purity of the protein was analyzed by SDS-PAGE. […]
OBSERVATION_TYPE: A510 of reaction group, Reaction 2
Lab note: record the figure alone, no unit after it.

q: Entry O=C(O)COc1ccc(Cl)cc1Cl [2,4-D, (2,4-dichlorophenoxy)acetic acid, reference compound] has what A510 of reaction group, Reaction 2?
a: 0.2766

q: Similarly, Cc1cc(Cl)ccc1OCC(=O)O ?
a: 0.2076

q: Similarly, O=C(O)CCCOc1ccc(Cl)cc1Cl ?
a: 0.1326

q: Similarly, CC(C)CCCCCOC(=O)COc1ccc(Cl)cc1Cl ?
a: 0.1578
